- tested target: human GR (glucocorticoid receptor) (Homo sapiens, UniProt P04150)
- Sequence (P04150 whole entry): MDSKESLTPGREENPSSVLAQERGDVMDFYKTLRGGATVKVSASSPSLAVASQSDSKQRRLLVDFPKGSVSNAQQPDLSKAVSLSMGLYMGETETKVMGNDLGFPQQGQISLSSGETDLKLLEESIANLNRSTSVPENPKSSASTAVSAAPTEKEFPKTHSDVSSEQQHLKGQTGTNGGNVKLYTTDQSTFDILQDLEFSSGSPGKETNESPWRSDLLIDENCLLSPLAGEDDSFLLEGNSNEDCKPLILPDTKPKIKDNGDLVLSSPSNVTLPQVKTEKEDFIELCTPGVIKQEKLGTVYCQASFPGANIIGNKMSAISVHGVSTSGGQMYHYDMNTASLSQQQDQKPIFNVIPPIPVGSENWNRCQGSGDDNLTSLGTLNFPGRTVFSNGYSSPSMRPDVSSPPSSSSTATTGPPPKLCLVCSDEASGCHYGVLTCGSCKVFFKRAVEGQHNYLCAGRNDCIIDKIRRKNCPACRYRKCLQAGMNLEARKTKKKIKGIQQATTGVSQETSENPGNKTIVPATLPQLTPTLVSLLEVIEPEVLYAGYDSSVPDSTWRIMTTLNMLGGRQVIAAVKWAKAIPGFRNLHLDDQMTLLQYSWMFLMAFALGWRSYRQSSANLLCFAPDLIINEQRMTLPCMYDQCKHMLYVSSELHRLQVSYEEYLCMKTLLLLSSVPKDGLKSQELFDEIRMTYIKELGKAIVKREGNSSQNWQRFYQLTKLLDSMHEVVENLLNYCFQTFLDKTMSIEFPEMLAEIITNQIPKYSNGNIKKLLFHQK
- protocol details: Steroid hormone nuclear receptor binding assay, GR
- condition summary: HEK293 lysate overexpressing human GR, [3H]-dexamethasone
endpoint label: Ki

Exercise: Consider the molecule CC(C)OC(=O)N[C@H]1Cc2c(n(C[C@H]3OCC[C@@H]3O)c3ccc(C#N)cc23)C1 [compound of Formula (I)] and give its measured Ki.
Solution: > 2000 nM

---

- protocol details: Determination of plasma exposure
- Assay type: in vivo
- condition summary: Sprague Dawley, rat, sc, male rats, 10 mg/kg s.c. once per day for two weeks, 5% DMSO/95% soybean oil, read-out: AUC (area under the plasma concentration time curve)
endpoint label: AUC

Exercise: Consider the molecule CC(C)OC(=O)N[C@H]1Cc2c(n(C[C@H]3OCC[C@@H]3O)c3ccc(C#N)cc23)C1 and give its measured AUC.
Solution: ~219 µg·h/mL
